Consider the following binders; for each one, report its koff.
# tgt: T1, huCD46-His (human, UniProt P15529 35-343)
# T1 construct: extracellular domain; Immobilised by amine coupling on the SPR chip; It may be the same protein as the ELISA antigen; also called Human CD46-His; human CD46; not shown: His tag
# T1 sequence (looked up): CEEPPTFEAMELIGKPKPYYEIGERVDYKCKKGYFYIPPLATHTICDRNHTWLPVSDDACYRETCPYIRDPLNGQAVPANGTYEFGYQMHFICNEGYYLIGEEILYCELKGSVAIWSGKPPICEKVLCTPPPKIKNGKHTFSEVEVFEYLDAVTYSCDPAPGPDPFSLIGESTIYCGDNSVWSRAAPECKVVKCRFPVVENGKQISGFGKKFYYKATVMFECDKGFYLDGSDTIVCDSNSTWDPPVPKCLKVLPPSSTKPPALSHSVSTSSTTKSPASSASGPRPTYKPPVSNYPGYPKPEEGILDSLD
# method.notes: SPR, huCD46-His immobilised, antibody as analyte, pH 6.5
Return type: number; implicit unit s⁻¹.

# return recorded koff for entry BAP133-2-03-03-SL (antibody, V domains shown, the killing assays used the ADC form; also called BAP133-02-03-03-SL; CPE hit BAP133-2-03-03-SL) VH: EVQLVESGGGLVQPGGSLRLSCAASGGSVSSYDISWIRQSPSRGLEWLGVIWTDGGTNYNSAFMSRFTISRDDSKNTAYLQMNSLKTEDTAVYYCERVYDGYPWFAYWGQGTLVTVSS VL: AIQLTQSPSSLSASVGDRVTITCRASQGISNYLNWYLQKPGQSPQLLIYYTSSLHSGVPDRFSGSGSGTDFTLKISRVEAEDVGVYYCQQYIKLPWTFGQGTKVEIK
0.000736

Please supply the value of reported koff for the item BA-133-04-01 (antibody, V domains shown, also called CPE hit BA133-04-01) VH: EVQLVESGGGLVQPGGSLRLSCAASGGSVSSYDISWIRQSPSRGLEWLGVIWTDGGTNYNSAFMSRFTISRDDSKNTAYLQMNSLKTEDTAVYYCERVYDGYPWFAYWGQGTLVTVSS VL: AIQLTQSPSSLSASVGDRVTITCRASQWISNYLNWYLQKPGQSPQLLIYYTSSLHSGVPDRFSGSGSGTDFTLKISRVEAEDVGVYYCQQYIKLPWTFGQGTKVEIK
0.00123

Answer with reported koff of BAP133-2-02-12 (antibody, V domains shown, also called BAP133-02-02-12; CPE hit BAP133-2-02-12) VH: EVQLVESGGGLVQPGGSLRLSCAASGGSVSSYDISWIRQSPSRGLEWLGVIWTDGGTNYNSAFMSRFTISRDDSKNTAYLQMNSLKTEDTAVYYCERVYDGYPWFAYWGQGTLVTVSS VL: AIQLTQSPSSLSASVGDRVTITCRALQGISNYLNWYQQKPGKAPKLLIYYTSSLHSGVPSRFSGSGSGTEFTLTISSLQPDDFATYYCQQYIKLPWTFGQGTKVEIK
0.00282

Write down koff measured for item BA-133-04-03 (antibody, V domains shown, also called CPE hit BA133-04-03) VH: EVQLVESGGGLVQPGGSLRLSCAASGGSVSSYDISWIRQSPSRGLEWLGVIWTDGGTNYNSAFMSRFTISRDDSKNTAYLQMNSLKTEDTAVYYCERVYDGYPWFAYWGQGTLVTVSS VL: AIQLTQSPSSLSASVGDRVTITCRASQGISNYLNWYLQKPGQSPQLLIYYTSSLFSGVPDRFSGSGSGTDFTLKISRVEAEDVGVYYCQQYIKLPWTFGQGTKVEIK
0.00195

Please report koff for the following binder: Benchmark (BM) BA-133-00-01 (antibody, V domains shown, the killing assays used the ADC form; Conjugation site and payload are not described; also called BM (bench mark)) VH: QVQLQESGPGLVKPSETLSLTCTVSGGSVSSYDISWIRQPPGKGLEWIGVIWTDGGTNYNSAFMSRVTISVDTSKNQFSLKLSSVTAADTAVYYCARVYDGYPWFAYWGQGTLVTVSS VL: DIQMTQSPSSLSASVGDRVTITCRASQGISNYLNWYQQKPGKAPKLLIYYTSSLHSGVPSRFSGSGSGTDFTLTISSLQPEDFATYYCQQYIKLPWTFGGGTKLEIKR
0.00133

Find the measured koff of BA-133-04-04 (antibody, V domains shown, the killing assays used the ADC form; also called CPE hit BA133-04-04) VH: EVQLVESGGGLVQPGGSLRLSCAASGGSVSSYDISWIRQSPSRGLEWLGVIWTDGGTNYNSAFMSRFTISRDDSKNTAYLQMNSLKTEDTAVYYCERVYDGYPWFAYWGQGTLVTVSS VL: AIQLTQSPSSLSASVGDRVTITCRASQGISNYLNWYLQKPGQSPQLLIYYTSSLHEGVPDRFSGSGSGTDFTLKISRVEAEDVGVYYCQQYIKLPWTFGQGTKVEIK and report it.
0.00176

Item BA-133-04-02 (antibody, V domains shown, also called CPE hit BA133-04-02) VH: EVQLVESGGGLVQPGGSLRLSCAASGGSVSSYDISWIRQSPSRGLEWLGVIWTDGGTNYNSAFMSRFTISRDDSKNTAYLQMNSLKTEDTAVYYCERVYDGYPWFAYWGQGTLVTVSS VL: AIQLTQSPSSLSASVGDRVTITCRASQGIANYLNWYLQKPGQSPQLLIYYTSSLHSGVPDRFSGSGSGTDFTLKISRVEAEDVGVYYCQQYIKLPWTFGQGTKVEIK : provide koff
0.00127
